Test system: EfPiwi piRISC loaded with piRNA #1 (26 nt)
Experiment: pre-steady-state target cleavage rate (min^-1); auxiliary factor: 500 nM Ephydatia muelleri Gtsf1; guide: piRNA #1 5'p-UGAGGUAGUAGGUUGUAUAGUAUCCA; higher = faster piRNA-guided slicing of the target
Reported pre-steady-state target cleavage rate is given for each of the following sequences.

Guide cases for pre-steady-state target cleavage rate, answers given:
chain sequence: GGAGUGGAUACAAUACAACCAACUACCUCA
study system: EfPiwi piRISC loaded with piRNA #1 (26 nt)
recorded result: 0.00289

chain sequence: GGAGAGGAAACUAUACAACCUAGUACCUCA
study system: EfPiwi piRISC loaded with piRNA #1 (26 nt)
recorded result: 0.00323

chain sequence: GGAGAGGAUACAAUACAUCCUACUACCUCA
study system: EfPiwi piRISC loaded with piRNA #1 (26 nt)
recorded result: 0.00771

chain sequence: GGAGACGAUACUAAACUACCUACUACCUCA
study system: EfPiwi piRISC loaded with piRNA #1 (26 nt)
recorded result: 0.00228

chain sequence: GGAGUGGAUACUAUAGAACCUACUACGUCA
study system: EfPiwi piRISC loaded with piRNA #1 (26 nt)
recorded result: 0.00205

chain sequence: GGAGACGUUACUAUACAAGCUACUACCUCA
study system: EfPiwi piRISC loaded with piRNA #1 (26 nt)
recorded result: 0.00435

# input pre-steady-state target cleavage rate of GGAGACCAAACUAUACAACCUUCUACCUCA on EfPiwi piRISC loaded with piRNA #1 (26 nt)?
# output 0.00406

# input pre-steady-state target cleavage rate of GGAGACGAUACUAAACAAGCUACUACCUCA on EfPiwi piRISC loaded with piRNA #1 (26 nt)?
# output 0.00331

# input pre-steady-state target cleavage rate of GGAGUGGAUACUAUACAACCUACUAGCCUCA on EfPiwi piRISC loaded with piRNA #1 (26 nt)?
# output 0.00369

====

System: EfPiwi piRISC loaded with piRNA #1 (26 nt)
Assay: pre-steady-state target cleavage rate (min^-1); auxiliary factor: 500 nM Ephydatia muelleri Gtsf1; guide: piRNA #1 5'p-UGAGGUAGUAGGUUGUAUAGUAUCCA; MIWI and MILI are mouse PIWI proteins and EfPiwi is from a freshwater sponge; tags in brackets are library labels; higher = faster piRNA-guided slicing of the target
Class Condition met: pre-steady-state target cleavage rate at least 0.006. Class Condition not met: pre-steady-state target cleavage rate below 0.006.

Solved cases below.
chain sequence: GGAGACGAUACUAUAGAACCAACUACCUCA
group label: Condition not met
//
chain sequence: GGAGACCUAACUAUGCAACCUACUACCUCA
group label: Condition not met
//
chain sequence: GGAGACCUUACUUUACAACCUAGUACCUCA
group label: Condition not met
//
chain sequence: GGAGAGGAUACUAACAACCUACUACCUCA
group label: Condition met
//
chain sequence: GGAGAGGAUACUAUACAACCUACAUCCUCA
group label: Condition not met

# input Could you verify whether the entry GGAGUGGAUACUGAUACAACCUACUACCUCA shows pre-steady-state target cleavage rate of no less than 0.006?
# output Condition met

# input Could you verify whether the entry GGAGACCUAUCUUUACAACCUACUACCUCA shows pre-steady-state target cleavage rate of no less than 0.006?
# output Condition not met

# input Could you verify whether the entry GGAGACGAUUCUAUACAACCUACAACCUCA shows pre-steady-state target cleavage rate of no less than 0.006?
# output Condition not met

# input Could you verify whether the entry GGAGUGGAUACUUUACAUCCUACUACCUCA shows pre-steady-state target cleavage rate of no less than 0.006?
# output Condition not met

# input Could you verify whether the entry GGAGUGGAUACUAUACAACGUACAACCUCA shows pre-steady-state target cleavage rate of no less than 0.006?
# output Condition not met

# input Could you verify whether the entry GGAGAGGAUACUAUAUAACCUACUACCUCA shows pre-steady-state target cleavage rate of no less than 0.006?
# output Condition met
